experimental_protocol: Tumor cell line cytotoxicity of flavonoid dimers, LCC6
Assay type: cell-based, human
measurement_context: human, LCC6 cells, IC50 of compound alone
metric: IC50 at 72 h

Sample answers from the record:
compound: O=c1c(OCc2ccccc2)c(-c2ccc(OCCOCCNCCOCCOc3ccc(-c4oc5ccccc5c(=O)c4OCc4ccccc4)cc3)cc2)oc2ccccc12 [Compound 12e]
IC50 at 72 h: 4.3 µM
--
compound: O=c1cc(-c2ccc(OCCOCCN(CCOCCOc3ccc(-c4cc(=O)c5ccccc5o4)cc3)Cc3ccc(C(F)(F)F)cc3)cc2)oc2ccccc12
IC50 at 72 h: > 100 µM

# evaluate next
For O=c1cc(-c2ccc(OCCOCCN(CCOCCOc3ccc(-c4cc(=O)c5ccccc5o4)cc3)Cc3ccnc4ccccc34)cc2)oc2ccccc12 [Compound 64f] the compound record lists IC50 at 72 h as > 100 µM
